# Target of assay: full-length human PRMT8 isoform 1 (Homo sapiens, UniProt Q9NR22)
# Sequence (Q9NR22 whole entry, canonical isoform): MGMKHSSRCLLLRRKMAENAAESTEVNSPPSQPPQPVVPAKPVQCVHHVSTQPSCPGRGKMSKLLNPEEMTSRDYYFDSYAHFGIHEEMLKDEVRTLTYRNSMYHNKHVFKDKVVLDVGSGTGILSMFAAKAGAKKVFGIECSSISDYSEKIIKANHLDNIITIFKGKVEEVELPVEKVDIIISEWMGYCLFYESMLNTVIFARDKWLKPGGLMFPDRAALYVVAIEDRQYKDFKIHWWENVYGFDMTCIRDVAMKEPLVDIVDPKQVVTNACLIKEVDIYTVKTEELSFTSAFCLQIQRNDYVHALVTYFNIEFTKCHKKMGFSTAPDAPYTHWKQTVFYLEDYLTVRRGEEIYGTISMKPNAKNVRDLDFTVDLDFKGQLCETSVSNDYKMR
# Protocol summary: PRMT8 Biochemical Assay (3H-SAM Flashplate, peptide substrate)
# Condition details: read-out: Biochemical IC50 PRMT8
pIC50: −log10 of the molar value.
The entries below are paired with their reported pIC50.

compound="CNCCN(C)Cc1c[nH]nc1[C@H]1CC[C@H](OCCOc2ccc(OCCOC)cc2)CC1 [Compound 116]" target_of_assay="full-length human PRMT8 isoform 1 (Homo sapiens, UniProt Q9NR22)" data_value="> 7.00"
compound="CNCCN(C)Cc1c[nH]nc1C1CCC(OCCOc2ccccc2)CC1 (centres unmarked) [Compound 136]" target_of_assay="full-length human PRMT8 isoform 1 (Homo sapiens, UniProt Q9NR22)" data_value="> 7.00"
compound="CNCCN(C)Cc1c[nH]nc1C1CCC(O)C2(CCCC2)C1 (centres unmarked) [Compound 182]" target_of_assay="full-length human PRMT8 isoform 1 (Homo sapiens, UniProt Q9NR22)" data_value="> 7.00"
compound="CNCCN(C)Cc1c[nH]nc1[C@H]1CC[C@@]2(CCN(Cc3ccc(OCCOC)cc3)C2=O)CC1 [Compound 120]" target_of_assay="full-length human PRMT8 isoform 1 (Homo sapiens, UniProt Q9NR22)" data_value="> 7.00"

// next item, pIC50 requested
**Q:** pIC50 of CCOCC1CC(c2n[nH]cc2CN(C)CCNC)CC(COCC)C1(C)C (centres unmarked) [Compound 87] on full-length human PRMT8 isoform 1 (Homo sapiens, UniProt Q9NR22)?
**A:** 5.52 to 6.00

meta.source: patent US11512053B2
